The reported measurements were obtained from patent US20220220075A1.

Assay: Study on pharmacokinetics (PK) in rats
Format: in vivo, male SD rats
Conditions: rat; male SD rats, PO, 5 mg/kg, suspension in 0.5% MC, plasma
measuredProperty: AUC(0-t) (ng·h/mL)
Numeric only. Scale: ng·h/mL

Q: Name the recorded AUC(0-t) of the item COc1nc2ccccc2cc1C(=O)/C=C/c1cc(C)c(OC(C)(C)C(=O)O)c(C)c1 [crystalline form A] in your answer.
Ans: 777
